READOUT NAME: melting point

Reference set (3 entries):
>  <MOLECULE>
COc1ccc(CCNCC(O)COc2ccc(-c3nc(-c4cccs4)c[nH]3)cc2)cc1OC (stereo unspecified)

>  <melting point>
127 to 129 °C

$$$$
>  <MOLECULE>
COC(=O)c1scc(Cl)c1O

>  <melting point>
78 °C

$$$$
>  <MOLECULE>
O=C(NCc1cccnc1)[NH+]([O-])c1cccc2ccccc12 (stereo unspecified)

>  <melting point>
188 °C

$$$$

Challenge: Suppose we examine the molecule O=Cc1ccc(F)c(F)c1 ; what melting point value has been reported?
Response given: 95 to 96 °C

Challenge: // query melting point value for entry CC(C)(C)OC(=O)N1CCN(c2ccc(S(=O)(=O)c3ccccc3)c(N)c2)CC1
Response given: 135 to 137 °C

Challenge: Which melting point value is on record for COc1cc2c(c(Br)c1OC(C)=O)Sc1cc(F)ccc1N2 ?
Response given: 224 to 226 °C

---

READOUT NAME: melting point

>  <MOLECULE>
CCCC(=O)Oc1cc(-c2nc3cc(F)ccc3s2)ccc1OC

>  <melting point>
125 °C

$$$$

Challenge: State the recorded melting point for this entry: COc1ccc(NC(=O)N2CCC(C)C2=O)cc1 (stereo not given)
Response given: 71 to 72 °C

Challenge: Query (molecule): CCCCc1nc(Cl)c(COC)n1Cc1ccc2oc(-c3ccccc3-c3nnn[nH]3)c(Br)c2c1 ; field requested: melting point
Response given: 213 to 215 °C

Challenge: Given the entry Nc1ccc2ccc(SCc3ccccc3)nc2n1 , report its measured melting point.
Response given: 167 °C

Challenge: If you can, please state the reported melting point value of CCNC(=O)c1c(Cl)cccc1OC(C)(C)C .
Response given: 126 to 127 °C

Challenge: Can you share its melting point? I mean this molecule: OC1N=C(c2ccccc2F)c2cc(Cl)ccc2-c2ncncc21 (stereo not given)
Response given: 186 to 188 °C

Challenge: May I ask what melting point has been recorded for COC(=O)C=Cc1ccc2c(c1)cc(C)n2S(=O)(=O)c1ccccc1 ?
Response given: 126 to 128 °C

Challenge: For CC(=O)OC1CCc2c(Nc3ccc(C#N)cc3)ncnc21 (stereo not given) , what is its reported melting point?
Response given: 215 to 217 °C

Challenge: Looking for the measured melting point of CC(=O)N(C)CCc1ccc(CCC(=O)O)cc1 , can you help?
Response given: 133 to 134 °C

Challenge: Fill in the blank: the reported melting point of CS(=O)(=O)c1ccc(-c2c(-c3ccccc3)c(=O)c2=O)cc1 is ____.
Response given: 139 to 140 °C

Challenge: Look at this molecule and give its reported melting point. COc1cc2c(cc1Br)-c1c(-c3cccs3)c3c(n1CC2)C(=O)N(C(C)(C)C)CCC3
Response given: 232 to 233 °C

Challenge: Record request: melting point value, item C[C@@H](Nc1nc(Nc2cccc(NS(C)(=O)=O)c2)nc2[nH]ccc12)C(C)(C)C
Response given: 125 to 128 °C

Challenge: Fill in the blank: the reported melting point of COc1cc(OC)nc(NC(=O)NS(=O)(=O)c2ccccc2-c2nnn(C)n2)n1 is ____.
Response given: 214 to 222 °C

Challenge: Form field: reported melting point of Cn1nc(C(F)(F)F)nc1NCCCCOc1cccc(CN2CCCCC2)c1
Response given: 70 °C

---

READOUT NAME: melting point

>  <MOLECULE>
COc1ccc(NC(=O)c2ccc([N+](=O)[O-])c(C)c2)cc1

>  <melting point>
168 to 169 °C

$$$$
>  <MOLECULE>
CC(=O)OC1CSC(Oc2ccc(C)nc2)C(OC(C)=O)C1OC(C)=O (stereo not drawn)

>  <melting point>
130 °C

$$$$
>  <MOLECULE>
N=C(N)NCCOc1ccc2c(c1)NC(=O)C(CCC(=O)O)C2 (stereo not drawn)

>  <melting point>
193 to 196 °C

$$$$
>  <MOLECULE>
Cc1cccc2c(=O)[nH]cc(Br)c12

>  <melting point>
201 to 210 °C

$$$$
>  <MOLECULE>
COc1ccccc1Cc1c(N)nc(SCCCN2CCN(C(C)=O)CC2)nc1N

>  <melting point>
208 to 209 °C

$$$$
>  <MOLECULE>
O=C(Nc1ccc2ccc(Cl)nc2n1)c1c(F)cccc1F

>  <melting point>
242 °C

$$$$
>  <MOLECULE>
CC(C)(C(=O)C(Oc1ccc(Cl)cc1Cl)n1ccnc1)C(Cl)Cl (stereo not drawn)

>  <melting point>
125 to 126 °C

$$$$

Challenge: Fill in the blank: the reported melting point of CC(C)(C)OC(=O)Nc1ccc(-c2ccc(F)cc2)cc1[N+](=O)[O-] is ____.
Response given: 155 to 167 °C

---

READOUT NAME: melting point

Solved cases below.
>  <COMPOUND>
COC(=O)c1ccc(/C=C\c2ccc(C(=O)OC)cc2Cl)cc1

>  <melting point>
134 to 135 °C

$$$$
>  <COMPOUND>
Clc1ccc(N2CCN(Cc3c[nH]c4ncccc34)CC2)cc1Cl

>  <melting point>
219 to 220 °C

$$$$
>  <COMPOUND>
Cc1nc(-n2ccc(O)cc2=O)sc1C(=O)NCc1cccnc1

>  <melting point>
238 to 240 °C

$$$$
>  <COMPOUND>
CNC(=O)N(N)c1nnc(C(C)(C)C)s1

>  <melting point>
141 to 142 °C

$$$$
>  <COMPOUND>
COC(=O)C1=C(C)NC(C)=C(c2ccccc2)C1c1cccc(Cl)c1 (stereo not given)

>  <melting point>
191 °C

$$$$
>  <COMPOUND>
C[C@@H]1CN(c2c(F)c(N)c3c(=O)c(C(=O)O)cn(C4CC4)c3c2F)C[C@H](C)N1

>  <melting point>
258 to 260 °C

$$$$

Challenge: Which melting point value belongs to CN(C)C(=C[N+](=O)[O-])NCc1cnc(Cl)s1 ?
Response given: 101 to 102 °C

Challenge: Field request: melting point | item: CCOC(=O)/C(=N\OCCN=[N+]=[N-])c1csc(N)n1
Response given: 123 to 124 °C

Challenge: Please give the measured melting point for this compound: Cc1cc(-n2ccnc2)c2cccc(OCc3c(Cl)ccc(S(=O)(=O)N4CCC[C@H]4C(=O)N(C)CCN(C)CCCO)c3Cl)c2n1
Response given: 98 °C

Challenge: I am curious: what melting point value has been reported for O=C(O)CCCC(=O)Nc1cccc(-c2nnc(-c3ccc(C(F)(F)F)cc3)nn2)c1 ?
Response given: 246 to 248 °C

---

READOUT NAME: melting point

Field: example entries. Status: answers known.
>  <COMPOUND>
CC(C)c1cc(-c2ccc(F)cc2)cc(-c2ccc(F)cc2)c1C=O

>  <RESULT>
110 to 112 °C

$$$$
>  <COMPOUND>
COc1cccc(C(=O)NC2(C(=O)N(C)OC)CC2)c1C

>  <RESULT>
173 to 175 °C

$$$$
>  <COMPOUND>
CCOc1ccccc1CNc1c(C#N)ccnc1C(N)=O

>  <RESULT>
150 to 152 °C

$$$$

Challenge: Any idea what melting point was measured for N#Cc1c(N2CCCCC2)cc(-c2ccc3ccc4cccc5ccc2c3c45)c2c1-c1ccccc1C2 ?
Response given: 114 to 116 °C

Challenge: Give its melting point value. Item: O=c1ccn(CCO)c(C(O)c2cccs2)c1OCc1ccccc1 (configuration not stated)
Response given: 194 to 196 °C

Challenge: Item under review: CCOP(=O)(Cn1c(=O)c(=O)[nH]c2cc([N+](=O)[O-])ccc21)OCC . Reported melting point?
Response given: 197 °C

Challenge: Entry Cc1cccc2cc(N3CCN(CCO)CC3)[nH]c(=O)c12 : reported melting point = ?
Response given: 209 to 210 °C

Challenge: Which value of melting point has been reported for CN(Cc1ccc(NC(=O)C2=Cc3cc(-c4ccc(Cl)cc4)ccc3OCC2)cc1)C1CCOCC1 in the records?
Response given: 191 to 192 °C

Challenge: Consider the compound shown here: CC(C)(C)C(NC(=O)c1ccc(I)cc1)Nc1c(Nc2cccnc2)c(=O)c1=O (configuration not stated) What is its recorded melting point?
Response given: 256 to 257 °C

Challenge: Any idea what melting point was measured for CC(=O)N1CCc2ccc(C(=O)CCC(=O)N3CCC(c4ccc(Cl)cc4)CC3)cc2CC1 ?
Response given: 110 to 112 °C

Challenge: Entry CN(C(CCn1c(=O)[nH]c2ccccc2c1=O)C(=O)NO)S(=O)(=O)c1ccc(Oc2cccc(Cl)c2)cc1 (configuration not stated) has what melting point?
Response given: 137 to 140 °C

Challenge: Bench note: what melting point did COc1ccccc1CC(=O)N1CCCc2ncc3ccccc3c21 show?
Response given: 108 to 111 °C

Challenge: Please look up its melting point: Cc1ccccc1-c1c(C2CCN(C)CC2)[nH]c(=O)c2ccccc12
Response given: 249 to 251 °C

Challenge: Need melting point of COc1ccc(C(=O)N(C(=O)c2ccc(OC)cc2)c2nc3ccc(N4CCN(Cc5ccccc5)CC4)cc3c(NCc3ccccc3)c2C#N)cc1 , thanks.
Response given: 157 °C

Challenge: Which measured melting point value corresponds to CC(C)(C)OC(=O)NCc1ccc(OCCC2Oc3ccccc3N(Cc3ccc(Cl)cc3)C2=O)cc1 (configuration not stated) ?
Response given: 121 to 122 °C

Challenge: Requested field: melting point. Item: Cc1[nH]c(C(=O)NC2CCN(c3cc(C(=O)O)nc4ccccc34)CC2)c(Cl)c1Cl
Response given: 254 to 256 °C

Challenge: Returns the measured melting point for the input compound. Input: Cc1nn2c(-c3cccc(NC(=O)CC(C)C)c3)ccnc2c1C(=O)c1cccs1
Response given: 137 to 139 °C
